# Target Desc: Melanocortin receptor 3 (Homo sapiens, UniProt P41968)
# Sequence (P41968 whole entry): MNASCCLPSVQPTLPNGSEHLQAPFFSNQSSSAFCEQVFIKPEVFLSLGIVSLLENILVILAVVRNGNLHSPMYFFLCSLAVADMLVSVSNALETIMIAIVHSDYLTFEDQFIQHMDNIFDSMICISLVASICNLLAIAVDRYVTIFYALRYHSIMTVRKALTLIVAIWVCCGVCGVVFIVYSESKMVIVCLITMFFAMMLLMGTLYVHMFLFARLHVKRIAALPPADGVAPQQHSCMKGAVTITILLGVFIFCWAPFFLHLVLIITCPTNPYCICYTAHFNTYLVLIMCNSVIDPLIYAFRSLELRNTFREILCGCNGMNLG
# Experimental Protocol: Activity against human MC3R by percentage of cAMP accumulation at 10 uM
# Assay type: functional
Observed Property: %max (%)

Take a look at these entries with their results.
Given Smiles: CC1(C)CCN(CC2(C3CCCCC3)CCN(C(=O)[C@@H](Cc3ccc(Cl)cc3)NC(=O)[C@H]3Cc4ccccc4CN3)CC2)S1(=O)=O
%max (%): 18
--
Given Smiles: C[C@H]1COC(=O)N1CC1(C2CCCCC2)CCN(C(=O)[C@@H](Cc2ccc(Cl)cc2)NC(=O)[C@H]2Cc3ccccc3CN2)CC1
%max (%): 19
--
Given Smiles: O=C(N[C@H](Cc1ccc(Cl)cc1)C(=O)N1CCC(CN2CCNC2=O)(C2CCCCC2)CC1)[C@H]1Cc2ccccc2CN1
%max (%): 23
--
Given Smiles: CC(C)N(CC1(C2CCCCC2)CCN(C(=O)[C@@H](Cc2ccc(Cl)cc2)NC(=O)[C@H]2Cc3ccccc3CN2)CC1)S(C)(=O)=O
%max (%): 23
--
Given Smiles: O=C(N[C@H](Cc1ccc(Cl)cc1)C(=O)N1CCC(CN2C(=O)OCC23CC3)(C2CCCCC2)CC1)[C@H]1Cc2ccccc2CN1
%max (%): 15

(I) CN1CCN(CC2(C3CCCCC3)CCN(C(=O)[C@@H](Cc3ccc(Cl)cc3)NC(=O)[C@H]3Cc4ccccc4CN3)CC2)C1=O
(II) CC1(C)COC(=O)N1CC1(C2CCCCC2)CCN(C(=O)[C@@H](Cc2ccc(Cl)cc2)NC(=O)[C@H]2Cc3ccccc3CN2)CC1
Of I and II , which carries the smaller reported %max figure? // respond with label for picked entry
II
(II: 6%, I: 24%)

----------
# Target Desc: Melanocyte-stimulating hormone receptor (Homo sapiens)
# Sequence (Q01726 whole entry): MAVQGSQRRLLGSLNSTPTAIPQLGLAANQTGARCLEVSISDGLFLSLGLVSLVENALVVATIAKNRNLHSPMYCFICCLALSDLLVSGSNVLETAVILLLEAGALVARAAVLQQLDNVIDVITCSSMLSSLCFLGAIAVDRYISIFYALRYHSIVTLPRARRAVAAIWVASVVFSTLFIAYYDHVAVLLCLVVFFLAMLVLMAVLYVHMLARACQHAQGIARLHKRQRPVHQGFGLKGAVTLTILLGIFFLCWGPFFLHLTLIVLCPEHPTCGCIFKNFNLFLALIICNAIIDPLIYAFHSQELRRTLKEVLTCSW
# Experimental Protocol: Activity against human MC1BR by cAMP accumulation
# Assay type: functional
pEC50: −log10 of the molar value.
Observed Property: pEC50

Given Smiles: C[C@H]1COC(=O)N1CC1(C2CCCCC2)CCN(C(=O)[C@@H](Cc2ccc(Cl)cc2)NC(=O)[C@H]2Cc3ccccc3CN2)CC1
Target Desc: Melanocyte-stimulating hormone receptor (Homo sapiens)
Endpoint Result: 5.68
//
Given Smiles: CCOC(=O)N(CC1(C2CCCCC2)CCN(C(=O)[C@@H](Cc2ccc(Cl)cc2)NC(=O)[C@H]2Cc3ccccc3CN2)CC1)C(C)C
Target Desc: Melanocyte-stimulating hormone receptor (Homo sapiens)
Endpoint Result: 6.01
//
Given Smiles: CC1(C)COC(=O)N1CC1(C2CCCCC2)CCN(C(=O)[C@@H](Cc2ccc(Cl)cc2)NC(=O)[C@H]2Cc3ccccc3CN2)CC1
Target Desc: Melanocyte-stimulating hormone receptor (Homo sapiens)
Endpoint Result: 6.26
//
Given Smiles: CC1(C)CCN(CC2(C3CCCCC3)CCN(C(=O)[C@@H](Cc3ccc(Cl)cc3)NC(=O)[C@H]3Cc4ccccc4CN3)CC2)S1(=O)=O
Target Desc: Melanocyte-stimulating hormone receptor (Homo sapiens)
Endpoint Result: 6.34
//
Given Smiles: CC(C)N(CC1(C2CCCCC2)CCN(C(=O)[C@@H](Cc2ccc(Cl)cc2)NC(=O)[C@H]2Cc3ccccc3CN2)CC1)S(C)(=O)=O
Target Desc: Melanocyte-stimulating hormone receptor (Homo sapiens)
Endpoint Result: 5.82

(A) O=C(N[C@H](Cc1ccc(Cl)cc1)C(=O)N1CCC(CN2CCCS2(=O)=O)(C2CCCCC2)CC1)[C@H]1Cc2ccccc2CN1
(B) O=C(N[C@H](Cc1ccc(Cl)cc1)C(=O)N1CCC(CN2CCOC2=O)(C2CCCCC2)CC1)[C@H]1Cc2ccccc2CN1
(C) O=C(N[C@H](Cc1ccc(Cl)cc1)C(=O)N1CCC(CN2C(=O)OCC23CC3)(C2CCCCC2)CC1)[C@H]1Cc2ccccc2CN1
Let's sort these by pEC50, smallest first. Go ahead? Please list the labels in the order you were asked to rank them.
C, B, A
(C: 5.59, B: 5.89, A: 6.17)

----------
# Target Desc: Melanocortin receptor 5 (Homo sapiens, UniProt P33032)
# Sequence (P33032 whole entry): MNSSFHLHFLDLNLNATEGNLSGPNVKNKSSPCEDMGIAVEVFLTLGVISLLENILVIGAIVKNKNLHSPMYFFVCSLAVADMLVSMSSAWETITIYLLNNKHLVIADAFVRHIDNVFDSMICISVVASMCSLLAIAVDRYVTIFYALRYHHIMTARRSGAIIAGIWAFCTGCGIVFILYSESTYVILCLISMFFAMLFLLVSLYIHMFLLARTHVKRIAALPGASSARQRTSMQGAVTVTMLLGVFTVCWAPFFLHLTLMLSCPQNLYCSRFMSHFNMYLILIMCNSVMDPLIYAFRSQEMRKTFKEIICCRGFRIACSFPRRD
# Experimental Protocol: Activity against human MC5R by cAMP accumulation
Observed Property: EC50 (nM)

Given Smiles: O=C(N[C@H](Cc1ccc(Cl)cc1)C(=O)N1CCC(CN2C(=O)OCC23CC3)(C2CCCCC2)CC1)[C@H]1Cc2ccccc2CN1
Endpoint Result: 620

(A) CCOC(=O)N(CC1(C2CCCCC2)CCN(C(=O)[C@@H](Cc2ccc(Cl)cc2)NC(=O)[C@H]2Cc3ccccc3CN2)CC1)C(C)C
(B) O=C(N[C@H](Cc1ccc(Cl)cc1)C(=O)N1CCC(CN2CCCS2(=O)=O)(C2CCCCC2)CC1)[C@H]1Cc2ccccc2CN1
(C) C[C@@H]1COC(=O)N1CC1(C2CCCCC2)CCN(C(=O)[C@@H](Cc2ccc(Cl)cc2)NC(=O)[C@H]2Cc3ccccc3CN2)CC1
(D) O=C(N[C@H](Cc1ccc(Cl)cc1)C(=O)N1CCC(CN2CCOC2=O)(C2CCCCC2)CC1)[C@H]1Cc2ccccc2CN1
Highest EC50 first, then in falling order down to the smallest. # respond with the labels, arranged in the requested order
A, B, C, D
(A: 3600 nM, B: 660 nM, C: 400 nM, D: 280 nM)

----------
# Target Desc: Melanocortin receptor 4 (Homo sapiens, UniProt P32245)
# Sequence (P32245 whole entry): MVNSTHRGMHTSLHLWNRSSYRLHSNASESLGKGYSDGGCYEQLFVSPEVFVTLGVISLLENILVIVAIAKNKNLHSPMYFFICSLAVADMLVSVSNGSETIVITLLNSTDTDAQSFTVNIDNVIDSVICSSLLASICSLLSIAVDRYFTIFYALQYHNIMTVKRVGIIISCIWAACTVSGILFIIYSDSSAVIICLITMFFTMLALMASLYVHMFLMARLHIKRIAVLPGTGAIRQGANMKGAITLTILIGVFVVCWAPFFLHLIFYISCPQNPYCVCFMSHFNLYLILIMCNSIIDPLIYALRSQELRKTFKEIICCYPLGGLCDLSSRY
# Experimental Protocol: Activity against human MC4R by percentage of cAMP accumulation at 10 uM
# Assay type: functional
Observed Property: %max (%)

Given Smiles: C[C@@H]1COC(=O)N1CC1(C2CCCCC2)CCN(C(=O)[C@@H](Cc2ccc(Cl)cc2)NC(=O)[C@H]2Cc3ccccc3CN2)CC1
%max (%): 68
--
Given Smiles: C[C@H]1COC(=O)N1CC1(C2CCCCC2)CCN(C(=O)[C@@H](Cc2ccc(Cl)cc2)NC(=O)[C@H]2Cc3ccccc3CN2)CC1
%max (%): 90
--
Given Smiles: O=C(N[C@H](Cc1ccc(Cl)cc1)C(=O)N1CCC(CN2C(=O)OCC23CC3)(C2CCCCC2)CC1)[C@H]1Cc2ccccc2CN1
%max (%): 68
--
Given Smiles: O=C(N[C@H](Cc1ccc(Cl)cc1)C(=O)N1CCC(CN2CCOC2=O)(C2CCCCC2)CC1)[C@H]1Cc2ccccc2CN1
%max (%): 76

----------
# Target Desc: Melanocortin receptor 5 (Homo sapiens, UniProt P33032)
# Experimental Protocol: Activity against human MC5R by cAMP accumulation
pEC50: −log10 of the molar value.
Observed Property: pEC50

Here is how some molecules turned out for pEC50.
Given Smiles: CC1(C)CCN(CC2(C3CCCCC3)CCN(C(=O)[C@@H](Cc3ccc(Cl)cc3)NC(=O)[C@H]3Cc4ccccc4CN3)CC2)S1(=O)=O
Target Desc: Melanocortin receptor 5 (Homo sapiens, UniProt P33032)
pEC50: 6.07

Given Smiles: CN1CCN(CC2(C3CCCCC3)CCN(C(=O)[C@@H](Cc3ccc(Cl)cc3)NC(=O)[C@H]3Cc4ccccc4CN3)CC2)C1=O
Target Desc: Melanocortin receptor 5 (Homo sapiens, UniProt P33032)
pEC50: 6.34

Given Smiles: O=C(N[C@H](Cc1ccc(Cl)cc1)C(=O)N1CCC(CN2CCNC2=O)(C2CCCCC2)CC1)[C@H]1Cc2ccccc2CN1
Target Desc: Melanocortin receptor 5 (Homo sapiens, UniProt P33032)
pEC50: 6.32

(A) C[C@H]1COC(=O)N1CC1(C2CCCCC2)CCN(C(=O)[C@@H](Cc2ccc(Cl)cc2)NC(=O)[C@H]2Cc3ccccc3CN2)CC1
(B) O=C(N[C@H](Cc1ccc(Cl)cc1)C(=O)N1CCC(CN2C(=O)OCC23CCC3)(C2CCCCC2)CC1)[C@H]1Cc2ccccc2CN1
Select the item whose pEC50 value is smaller, choosing between A and B . Answer with the label corresponding to your selection.
B

(A) CC(C)N(CC1(C2CCCCC2)CCN(C(=O)[C@@H](Cc2ccc(Cl)cc2)NC(=O)[C@H]2Cc3ccccc3CN2)CC1)S(C)(=O)=O
(B) CC1(C)COC(=O)N1CC1(C2CCCCC2)CCN(C(=O)[C@@H](Cc2ccc(Cl)cc2)NC(=O)[C@H]2Cc3ccccc3CN2)CC1
Problem: Given the entries A and B , determine which has the lower reported pEC50. Please respond with the label that marks your chosen entry.
A
(A: 6.10, B: 6.47)

----------
# Target Desc: Melanocortin receptor 5 (Homo sapiens, UniProt P33032)
# Experimental Protocol: Displacement of [125I]NDP-alpha-MSH from human MC5R expressed in CHO cells
Observed Property: IC50 (nM)

Given Smiles: CC1(C)COC(=O)N1CC1(C2CCCCC2)CCN(C(=O)[C@@H](Cc2ccc(Cl)cc2)NC(=O)[C@H]2Cc3ccccc3CN2)CC1
Endpoint Result: 80

Given Smiles: O=C(N[C@H](Cc1ccc(Cl)cc1)C(=O)N1CCC(CN2C(=O)OCC23CC3)(C2CCCCC2)CC1)[C@H]1Cc2ccccc2CN1
Endpoint Result: 170

(I) O=C(N[C@H](Cc1ccc(Cl)cc1)C(=O)N1CCC(CN2CCOC2=O)(C2CCCCC2)CC1)[C@H]1Cc2ccccc2CN1
(II) CCOC(=O)N(CC1(C2CCCCC2)CCN(C(=O)[C@@H](Cc2ccc(Cl)cc2)NC(=O)[C@H]2Cc3ccccc3CN2)CC1)C(C)C
Pick one, I or II : lowest reported IC50. Pick one and reply with its label.
I
